Species: Rattus norvegicus
protocol.summary: DrugMatrix - Regimen: Daily Repeat
Format: toxicity, organism-based, Sprague-Dawley
Design: regimen Daily Repeat, gender Male, age 6-8 weeks
condition.summary: in vivo, po, 0 mg/kg, 120 h, tissue Blood, route oral GAVAGE, dose level Control, time 5 day, vehicle 100 % WATER
measured.metric: LEUKOCYTE COUNT (x10E3/uL)
Kindly answer with a numeric value in x10E3/uL, unit omitted.

# LEUKOCYTE COUNT lookup, item COc1ccc(C(CN(C)C)C2(O)CCCCC2)cc1 (stereo not given)
12.45

# query: LEUKOCYTE COUNT of entry CC1COc2c(N3CCN(C)CC3)c(F)cc3c(=O)c(C(=O)O)cn1c23 (stereo not given)
14.75

Quick one: LEUKOCYTE COUNT for Fc1ccc([C@@H]2CCNC[C@H]2COc2ccc3c(c2)OCO3)cc1 ?
8.73

// query LEUKOCYTE COUNT value for entry Cn1cnc([N+](=O)[O-])c1Sc1ncnc2nc[nH]c12
8.73

I have this compound here, NNC(=O)c1ccncc1 , and I need its recorded LEUKOCYTE COUNT.
14.6

Suppose we examine the compound CC(CCc1ccccc1)NCC(O)c1ccc(O)c(C(N)=O)c1 (stereo not given) ; what LEUKOCYTE COUNT value has been reported?
15.83

Return reported LEUKOCYTE COUNT; argument: NC(=O)c1ncn([C@@H]2O[C@H](CO)[C@@H](O)[C@H]2O)n1
15.48

Using the record for COc1cc2c(N3CCN(C(=O)Nc4ccc(OC(C)C)cc4)CC3)ncnc2cc1OCCCN1CCCCC1 , report its LEUKOCYTE COUNT.
13.43

Fill blank: measured LEUKOCYTE COUNT of the compound CC(C)(S)[C@@H](N)C(=O)O is ____.
11.32

# input compound: Clc1ccc(C(c2ccccc2Cl)C(Cl)Cl)cc1 (stereo not given) ; wanted: its LEUKOCYTE COUNT
13.6

Sourced from ChEMBL document CHEMBL3885881
